tested.on: STING variants (WT) (Homo sapiens, UniProt Q86WV6)
Construct: host or cells: HEK-Blue ISG KO-STING cells (Invivogen, hkb-kostg)
experimental.details: SEAP reporter assay in HEK-Blue ISG KO-STING cells transfected with STING WT variant (Method 1)
Type: cell-based
cond: compound concentration 25 μM; 24 h
// reported Fold change related to DMSO control, WT per item
The figure you give is taken to be in fold; do not add the unit.

Worked cases, answers included:
In: Answer with reported Fold change related to DMSO control, WT of CCn1nc(C)cc1C(=O)Nc1nc2cc(C(N)=O)cc3c2n1[C@@H](CCCCNC(=O)OCc1ccccc1)CO3
Out: 1.76

In: Answer with reported Fold change related to DMSO control, WT of CCn1nc(C)cc1C(=O)Nc1nc2cc(C(N)=O)cc3c2n1[C@@H](C)CCO3
Out: 3.02

In: Answer with reported Fold change related to DMSO control, WT of CCn1nc(C)cc1C(=O)Nc1nc2cc(C(N)=O)cc3c2n1CC1(CC1)O3
Out: 2.34

In: Answer with reported Fold change related to DMSO control, WT of CCn1nc(C)cc1C(=O)Nc1nc2cc(C(N)=O)cc3c2n1[C@@H](COCc1ccccc1)CO3
Out: 1.63

***
In: Answer with reported Fold change related to DMSO control, WT of CCn1nc(C)cc1C(=O)Nc1nc2cc(C(N)=O)cc3c2n1[C@@H](Cc1ccccc1)CO3
Out: 2.33

In: Answer with reported Fold change related to DMSO control, WT of CCn1nc(C)cc1C(=O)Nc1nc2cc(C(N)=O)cc3c2n1[C@@H](CCNC(=O)/C=C/c1cccc(F)c1)CO3
Out: 2.96

In: Answer with reported Fold change related to DMSO control, WT of CCC[C@H]1COc2cc(C(N)=O)cc3nc(NC(=O)c4cc(C)nn4CC)n1c23
Out: 2.62

The origin of these recorded values is patent US20240287093A1.
